// provenance: patent US4431652A

- target-under-test: pig liver glycolate oxidase (Sus scrofa)
- Sequence (I3LVF1 1-370): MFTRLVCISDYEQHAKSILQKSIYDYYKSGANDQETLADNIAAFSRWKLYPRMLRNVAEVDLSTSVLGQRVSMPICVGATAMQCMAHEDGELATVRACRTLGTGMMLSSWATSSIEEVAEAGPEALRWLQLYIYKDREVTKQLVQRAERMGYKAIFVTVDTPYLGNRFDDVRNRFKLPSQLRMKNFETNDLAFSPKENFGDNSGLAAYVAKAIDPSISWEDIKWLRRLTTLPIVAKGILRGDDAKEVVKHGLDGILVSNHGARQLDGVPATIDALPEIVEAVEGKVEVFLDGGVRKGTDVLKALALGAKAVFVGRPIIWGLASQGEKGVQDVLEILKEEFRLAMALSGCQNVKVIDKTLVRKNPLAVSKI
property-label: IC50 (nM)
State the answer as a number, implicitly in nM.

Query: For pig liver glycolate oxidase (Sus scrofa), provide IC50 of O=C1NS(=O)(=O)C(c2csc(-c3ccc(Cl)c(Cl)c3)n2)=C1O please.
Response: 110
